biological target: PIM1 (Homo sapiens)
Sequence (P11309 whole entry): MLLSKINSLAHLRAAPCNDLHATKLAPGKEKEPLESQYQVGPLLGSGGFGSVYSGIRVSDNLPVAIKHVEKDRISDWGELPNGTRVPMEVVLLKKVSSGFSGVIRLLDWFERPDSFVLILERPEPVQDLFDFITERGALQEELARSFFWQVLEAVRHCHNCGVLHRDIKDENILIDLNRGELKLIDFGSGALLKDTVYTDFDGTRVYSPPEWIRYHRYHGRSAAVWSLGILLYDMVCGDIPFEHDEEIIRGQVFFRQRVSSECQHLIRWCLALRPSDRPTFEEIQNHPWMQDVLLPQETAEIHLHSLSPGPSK
Reported Endpoint: IC50

Fill in: PIM1 (Homo sapiens) IC50 for CC(=O)Nc1ccc(C(=O)Nc2sc(Nc3ccccc3)nc2C(N)=O)cc1 = > 300 nM

* * *

Target chain: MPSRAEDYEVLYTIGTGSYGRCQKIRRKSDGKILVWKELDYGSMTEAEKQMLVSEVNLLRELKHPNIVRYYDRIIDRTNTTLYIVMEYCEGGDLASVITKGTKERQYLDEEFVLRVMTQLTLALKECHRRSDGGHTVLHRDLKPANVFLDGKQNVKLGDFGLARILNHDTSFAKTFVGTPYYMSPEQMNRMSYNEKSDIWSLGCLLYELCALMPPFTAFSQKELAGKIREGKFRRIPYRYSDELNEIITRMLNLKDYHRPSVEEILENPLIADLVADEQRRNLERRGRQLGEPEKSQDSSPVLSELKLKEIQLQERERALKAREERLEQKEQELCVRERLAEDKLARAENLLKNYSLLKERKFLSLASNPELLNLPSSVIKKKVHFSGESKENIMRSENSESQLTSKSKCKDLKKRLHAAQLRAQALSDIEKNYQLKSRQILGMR
pIC50: −log10 of the molar value.
Reported Endpoint: pIC50

Form field pIC50, entry CC(=O)Nc1ccc(C(=O)Nc2sc(Nc3ccccc3)nc2C(N)=O)cc1 [Compound 1] : < 6.52
